Test system: 128128-338-R-J1-PDC spheroids, viability % test/control
procedureSummary: Anticancer human tumor 128128-338-R-J1-PDC patient-derived melanoma cell line growth inhibition [TAK]
conditionsUsed: second compound 0.3 µM; first compound 0.0316 µM; active compounds read low; spheroids with HUVEC and MSC
Reported viability, T/C values for a set of molecules

| molecule | experimentalSystem | viability, T/C (%) |
| --- | --- | --- |
| Cc1nc(NC(=O)N2CCCC2C(N)=O)sc1-c1ccnc(C(C)(C)C(F)(F)F)c1 (stereo unspecified) + CC(C)NCC(C(=O)N1CCN(c2ncnc3c2C(C)CC3O)CC1)c1ccc(Cl)cc1 | 128128-338-R-J1-PDC spheroids, viability % test/control | 102 |
| CC(C)(C)c1nc(-c2cccc(NS(=O)(=O)c3c(F)cccc3F)c2F)c(-c2ccnc(N)n2)s1 + CC(C)NCC(C(=O)N1CCN(c2ncnc3c2C(C)CC3O)CC1)c1ccc(Cl)cc1 | 128128-338-R-J1-PDC spheroids, viability % test/control | 61 |
| COc1c(OCCCN2CCOCC2)ccc2c3n(c(=NC(=O)c4cnc(N)nc4)nc12)CCN3 + CC(C)NCC(C(=O)N1CCN(c2ncnc3c2C(C)CC3O)CC1)c1ccc(Cl)cc1 | 128128-338-R-J1-PDC spheroids, viability % test/control | 85.7 |
| CC(C)CC(NC(=O)CNC(=O)c1cc(Cl)ccc1Cl)B1OC(=O)CC(CC(=O)O)(C(=O)O)O1 (stereo unspecified) + CC(C)NCC(C(=O)N1CCN(c2ncnc3c2C(C)CC3O)CC1)c1ccc(Cl)cc1 | 128128-338-R-J1-PDC spheroids, viability % test/control | 2.27 |
| CC(C)n1nc(-c2ccc3oc(N)nc3c2)c2c(N)ncnc21 + CC(C)NCC(C(=O)N1CCN(c2ncnc3c2C(C)CC3O)CC1)c1ccc(Cl)cc1 | 128128-338-R-J1-PDC spheroids, viability % test/control | 31.3 |
| COC1CC2CCC(C)C(O)(O2)C(=O)C(=O)N2CCCCC2C(=O)OC(C(C)CC2CCC(OCCO)C(OC)C2)CC(=O)C(C)C=C(C)C(O)C(OC)C(=O)C(C)CC(C)C=CC=CC=C1C (stereo unspecified) + CC(C)NCC(C(=O)N1CCN(c2ncnc3c2C(C)CC3O)CC1)c1ccc(Cl)cc1 | 128128-338-R-J1-PDC spheroids, viability % test/control | 56.6 |

###

Tested on: 128128-338-R-J1-PDC spheroids, viability % test/control
procedureSummary: Anticancer human tumor 128128-338-R-J1-PDC cell line growth inhibition [TAK]; active = viability on the fitted dose curve at most 10% of control; inactive = the rest;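 note: spheroids exposed to compounds for 7 days; 100% = DMSO vehicle wells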
conditionsUsed: second compound 9.49 µM; first compound 0.00316 µM; spheroids with HUVEC and MSC
Outcomes: 1 for active, -1 for inactive

| molecule | experimentalSystem | label |
| --- | --- | --- |
| CC(C)CC(NC(=O)CNC(=O)c1cc(Cl)ccc1Cl)B1OC(=O)CC(CC(=O)O)(C(=O)O)O1 (stereo not given) + CC(C)NCC(C(=O)N1CCN(c2ncnc3c2C(C)CC3O)CC1)c1ccc(Cl)cc1 | 128128-338-R-J1-PDC spheroids, viability % test/control | -1 |
| COC1CC2CCC(C)C(O)(O2)C(=O)C(=O)N2CCCCC2C(=O)OC(C(C)CC2CCC(OCCO)C(OC)C2)CC(=O)C(C)C=C(C)C(O)C(OC)C(=O)C(C)CC(C)C=CC=CC=C1C (stereo not given) + CC(C)NCC(C(=O)N1CCN(c2ncnc3c2C(C)CC3O)CC1)c1ccc(Cl)cc1 | 128128-338-R-J1-PDC spheroids, viability % test/control | -1 |
| CC(C)n1nc(-c2ccc3oc(N)nc3c2)c2c(N)ncnc21 + CC(C)NCC(C(=O)N1CCN(c2ncnc3c2C(C)CC3O)CC1)c1ccc(Cl)cc1 | 128128-338-R-J1-PDC spheroids, viability % test/control | -1 |
| CC(C)CC(NC(=O)C(Cc1ccccc1)NC(=O)c1cnccn1)B(O)O (stereo not given) + CC(C)NCC(C(=O)N1CCN(c2ncnc3c2C(C)CC3O)CC1)c1ccc(Cl)cc1 | 128128-338-R-J1-PDC spheroids, viability % test/control | 1 |
| COc1c(OCCCN2CCOCC2)ccc2c3n(c(=NC(=O)c4cnc(N)nc4)nc12)CCN3 + CC(C)NCC(C(=O)N1CCN(c2ncnc3c2C(C)CC3O)CC1)c1ccc(Cl)cc1 | 128128-338-R-J1-PDC spheroids, viability % test/control | -1 |
